# CONDITION: in isopropanol, 304.15 K
QUANTITY: solubility (mole fraction)

| SMILES_STRING | TEST_RESULT |
| --- | --- |
| CC(=O)c1cccc(O)c1 | 0.256 |

---

# CONDITION: in isobutanol, 304.15 K
QUANTITY: solubility (mole fraction)

| SMILES_STRING | TEST_RESULT |
| --- | --- |
| CC(=O)c1cccc(O)c1 | 0.205 |

---

# CONDITION: in methanol, 325.15 K
QUANTITY: solubility (mole fraction)

| SMILES_STRING | QUANTITY | TEST_RESULT |
| --- | --- | --- |
| CC(=O)c1cccc(O)c1 | solubility (mole fraction) | 0.409 |

---

# CONDITION: in ethyl acetate, 292.15 K

| SMILES_STRING | solubility (mole fraction) |
| --- | --- |
| CC(=O)c1cccc(O)c1 | 0.168 |

---

# CONDITION: in water, 289.15 K

| SMILES_STRING | solubility (mole fraction) |
| --- | --- |
| CC(=O)c1cccc(O)c1 | 0.00073 |

---

# CONDITION: in ethyl acetate, 304.15 K

| SMILES_STRING | solubility (mole fraction) |
| --- | --- |
| CC(=O)c1cccc(O)c1 | 0.214 |

---

# CONDITION: in ethanol, 292.15 K

| SMILES_STRING | solubility (mole fraction) |
| --- | --- |
| CC(=O)c1cccc(O)c1 | 0.175 |

---

# CONDITION: in n-butanol, 319.15 K
QUANTITY: solubility (mole fraction)

| SMILES_STRING | QUANTITY | TEST_RESULT |
| --- | --- | --- |
| CC(=O)c1cccc(O)c1 | solubility (mole fraction) | 0.335 |
